assay.endpoint: melting point

- compound: "CN(C)c1ccccc1-c1ccccc1P(c1ccccc1)c1ccccc1"
  melting point: "126 to 128 °C"
- compound: "O=C(O)c1c2c(nc3ccc(F)cc13)CCCCC2"
  melting point: "289 to 291 °C"
- compound: "CCOC(=O)c1csc(-c2cccc(Cl)c2Cl)n1"
  melting point: "108 to 110 °C"
- compound: "Cc1nc(-c2ccccc2)c(CO)s1"
  melting point: "143 to 147 °C"
- compound: "Clc1nc[nH]c1Cl"
  melting point: "185 to 186 °C"

Return reported melting point; argument: O=C(Oc1c(F)c(F)c(F)c(F)c1F)c1cccc(-c2nccs2)c1
68.5 to 69.5 °C

Return reported melting point; argument: Nc1csc(C(F)(F)F)c1-c1ccccc1
65 to 66 °C

Return reported melting point; argument: O=C1C=CC(=O)N1c1ccccc1N1C(=O)C=CC1=O
245 to 248 °C

Return reported melting point; argument: COc1ccc(-c2csc(/C(C#N)=N\Nc3ccncc3)n2)cc1
255 °C

Return reported melting point; argument: CCOC1=NN(c2ccc([N+](=O)[O-])cc2)C(=O)C1
142 °C

Return reported melting point; argument: NS(=O)(=O)c1ccc(SCCCO)c([N+](=O)[O-])c1
163 °C

Return reported melting point; argument: Clc1ccc(CSSCc2ccc(Cl)cc2)cc1
59 to 61 °C

Return reported melting point; argument: O=[N+]([O-])c1ccc(Oc2ccc(Cl)cc2)nc1
93 to 96 °C

Return reported melting point; argument: O=C(COc1ccc2ccccc2c1)ON1C(=O)CCC1=O
150 to 152 °C
